- target.or.test.system: HA of virus A/Wisconsin/67/2005 (H3N2) (influenza A virus (H3N2))
- protocol.summary: cell-based or functional assay
Please provide measured Neutralization titer SK50 for the entries that follow.
Numbers only; they are read as µg/mL.

Measured Neutralization titer SK50, CR8015 (antibody, V domains shown) VH: QVQLQESGGDLVQPGGSLRLSCSASEFSFSSYWMSWVRQAPGKGLEWVANMKQDGSEKYYVDSVKGRFTISRDNAKNSLYLQMNSLRGEDTAVYYCARGSCDDSWTGCHDAFDI VL: VLTQPPSVSVAPGQTAKITCGGDNIGRKSVHWYQQKPGLAPVLVVNDNSDRPSGIPARFSGSNSGNTATLTISRVEAGDEADYYCHVWGSSRDHYV : 23.8

Measured Neutralization titer SK50, CR8003 (antibody, V domains shown) VH: EVQLVETGGDLVQPGGSLRLSCSASEFSFSSYWMSWVRQAPGKGLEWVANMKQDGSEKYYVDSVKGRFTISRDNAKNSLYLQMNSLRGEDTAVYYCARGSCDDSWTGCHDAFDI VL: VLTQPPSVSVAPGQTARIACGGNNIGSKSVHWYQQKPGQAPVLVVYDDSARPSGIPERFSGSNSGNTATLTISRVEAGDEADYYCQVWESGSDLRLL : 5.31

Measured Neutralization titer SK50, CR8018 (antibody, V domains shown) VH: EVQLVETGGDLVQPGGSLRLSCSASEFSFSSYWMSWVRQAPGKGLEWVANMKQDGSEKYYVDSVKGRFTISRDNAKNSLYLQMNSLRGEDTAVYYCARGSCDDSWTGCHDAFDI VL: QSALTQPASVSGSPGQSITISCTGTSSDVGGYNYVSWYQQHPGKAPKLMIYEVSHRPSGVSNRFSGSKSGSTASLTISGLQSEDEADYYCSSYTGEGPLGV : 6.03

Taken from patent US20130309248A1.
